Reference source: PubChem BioAssay (EPA / NIEHS)

test: CCTE_Shafer_MEA_acute_cross_correlation_area: CCTE's Neural Acute Assay for Area of Cross Correlation, Shafer Lab (AID 2284024);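 further: area under pooled inter-electrode spike cross-correlation near zero lag as percent change from own baseline; curves fitted for loss of cross-correlation area so actives lower synchrony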;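 on outcome: rat primary cortical neuron networks on 48-well MEA at DIV 13 or 15 with 40 min exposure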
Active and inactive are the calls of the source. How the source made its calls: active means hit-call score of the fitted dose curve at least 0.9, where 1 is the maximum; inactive means score below 0.9.
Could you please pick one outcome from this set? true = active, false = inactive

Exercise: Status in this test for CCOC(=O)C(C)OC(=O)c1cc(Oc2ccc(C(F)(F)F)cc2Cl)ccc1[N+](=O)[O-] (stereo not drawn) ?
Key: false

Exercise: Status in this test for COCC(=O)N(c1c(C)cccc1C)C(C)C(=O)OC (stereo not drawn) ?
Key: false

Exercise: Status in this test for Cc1nc(N(C)C)nc(OC(=O)N(C)C)c1C ?
Key: false

Exercise: Status in this test for CCOc1nc(F)cc2nc(S(=O)(=O)Nc3c(Cl)cccc3Cl)nn12 ?
Key: false

Exercise: Status in this test for Cc1ccc(N=CN(C)C=Nc2ccc(C)cc2C)c(C)c1 ?
Key: false

Exercise: Status in this test for CC1(C)C(C(=O)OC(C#N)c2cccc(Oc3ccccc3)c2)C1(C)C (stereo not drawn) ?
Key: true

Exercise: Status in this test for CCCCC(O)(Cn1cncn1)c1ccc(Cl)cc1Cl (stereo not drawn) ?
Key: false

Exercise: Status in this test for CCOP(=O)(OCC)Oc1nc(Cl)c(Cl)cc1Cl ?
Key: false

Exercise: Status in this test for CC(C)=CC1C(C(=O)OCc2coc(Cc3ccccc3)c2)C1(C)C (stereo not drawn) ?
Key: false

Exercise: Status in this test for C=C(C)CN(CC)c1c([N+](=O)[O-])cc(C(F)(F)F)cc1[N+](=O)[O-] ?
Key: false

Exercise: Status in this test for Cn1c(-c2ccccc2)cc(-c2ccccc2)[n+]1C ?
Key: false

Exercise: Status in this test for CC(C)C1(C)N=C(c2ncccc2C(=O)O)NC1=O (stereo not drawn) ?
Key: false

Exercise: Status in this test for OC(c1ccc(Cl)cc1)(c1ccc(Cl)cc1)C(Cl)(Cl)Cl ?
Key: false
